Source of measurements: PubChem BioAssay (NCI)

Tested on: MCF7 breast
Assay: NCI tumour cell line growth inhibition, 48 h; in the data active = GI50 below about 0.43 µM; inactive = the rest
Parameter call: string, one of 1 = active, 0 = inactive

// return assay outcome for CC1OC(O[C@H]2C[C@@H](O)[C@]3(CO)[C@H]4[C@H](O)C[C@]5(C)[C@@H](C6=CC(=O)OC6)CC[C@]5(O)[C@@H]4CC[C@]3(O)C2)C(O)C(O)C1O (stereo partly drawn)
0

Please indicate how the test categorized `COC(=O)c1cc2c3ccccc3[nH]c2c2ncccc12` .
0

For this compound, state the assay outcome: CSc1ccc(C2=NN(C(C)=O)C(c3cc(C)cs3)C2)cc1 (stereo not drawn)
0

Outcome? O=C(NCCOCCOCCNc1cccc2c1C(=O)N(C1CCCNC1=O)C2=O)c1cc2c(o1)C(=O)c1ccccc1C2=O (stereo not drawn)
0

Write down the call the test reported for this compound. Item: Nc1ccn(C2O[C@H](CO)[C@@H](O)[C@@H]2O)c(=O)n1 (stereo partly drawn)
0

Could you please tell me the result logged for `NCC(=O)NS(=O)(=O)OC[C@H]1O[C@@H](n2cnc3c(N)ncnc32)[C@H](O)[C@@H]1O` in this assay?
0

Called result for `COc1cccc(/C=N/NC(=O)c2ccccc2Nc2ccnc(C(F)(F)F)c2)c1O`
1

Kindly provide the recorded test outcome for the following compound: `CC1=C(CCCNS(C)(=O)=O)C2=C(C)C3(CC3)[C@@](C)(O)C(=O)C2=C1`
0
